Target Under Test: IKZF2 (Homo sapiens, UniProt Q96SW2+Q9UKS7)
Construct: CRISPR/Cas9—mediated insertion of the HiBiT peptide tag (Promega™) to the N-terminus of the IKZF2 gene locus; endogenous in cells; host or cells: MOLT4 cells, with CRISPR/Cas9 knock-in of HiBiT at the endogenous IKZF2 locus
Sequence (Q9UKS7 whole entry): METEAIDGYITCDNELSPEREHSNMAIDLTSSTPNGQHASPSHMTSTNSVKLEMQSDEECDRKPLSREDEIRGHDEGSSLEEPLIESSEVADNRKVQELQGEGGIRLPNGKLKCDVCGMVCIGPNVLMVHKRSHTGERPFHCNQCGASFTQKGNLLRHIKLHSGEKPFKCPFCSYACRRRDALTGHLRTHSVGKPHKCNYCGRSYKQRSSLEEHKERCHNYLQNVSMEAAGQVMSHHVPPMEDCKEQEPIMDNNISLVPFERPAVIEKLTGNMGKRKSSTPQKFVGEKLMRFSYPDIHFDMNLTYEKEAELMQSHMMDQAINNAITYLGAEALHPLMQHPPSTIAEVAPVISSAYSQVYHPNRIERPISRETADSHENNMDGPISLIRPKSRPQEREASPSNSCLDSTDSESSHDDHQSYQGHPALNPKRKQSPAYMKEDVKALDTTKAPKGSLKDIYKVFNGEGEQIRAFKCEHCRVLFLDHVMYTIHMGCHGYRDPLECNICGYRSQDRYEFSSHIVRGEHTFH
Sequence (Q96SW2 whole entry): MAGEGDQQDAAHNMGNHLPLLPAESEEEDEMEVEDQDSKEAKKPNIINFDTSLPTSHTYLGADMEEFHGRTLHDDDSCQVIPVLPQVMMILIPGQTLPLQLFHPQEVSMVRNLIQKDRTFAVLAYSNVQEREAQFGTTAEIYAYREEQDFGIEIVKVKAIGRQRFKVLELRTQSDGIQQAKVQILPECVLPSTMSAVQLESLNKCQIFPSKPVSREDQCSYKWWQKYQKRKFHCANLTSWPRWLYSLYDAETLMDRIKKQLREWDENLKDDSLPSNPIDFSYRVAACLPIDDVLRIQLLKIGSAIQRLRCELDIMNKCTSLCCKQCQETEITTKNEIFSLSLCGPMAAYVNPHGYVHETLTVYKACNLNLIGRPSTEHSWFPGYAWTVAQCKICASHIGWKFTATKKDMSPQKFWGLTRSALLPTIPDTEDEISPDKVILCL
Sequence (Q16531 whole entry partner): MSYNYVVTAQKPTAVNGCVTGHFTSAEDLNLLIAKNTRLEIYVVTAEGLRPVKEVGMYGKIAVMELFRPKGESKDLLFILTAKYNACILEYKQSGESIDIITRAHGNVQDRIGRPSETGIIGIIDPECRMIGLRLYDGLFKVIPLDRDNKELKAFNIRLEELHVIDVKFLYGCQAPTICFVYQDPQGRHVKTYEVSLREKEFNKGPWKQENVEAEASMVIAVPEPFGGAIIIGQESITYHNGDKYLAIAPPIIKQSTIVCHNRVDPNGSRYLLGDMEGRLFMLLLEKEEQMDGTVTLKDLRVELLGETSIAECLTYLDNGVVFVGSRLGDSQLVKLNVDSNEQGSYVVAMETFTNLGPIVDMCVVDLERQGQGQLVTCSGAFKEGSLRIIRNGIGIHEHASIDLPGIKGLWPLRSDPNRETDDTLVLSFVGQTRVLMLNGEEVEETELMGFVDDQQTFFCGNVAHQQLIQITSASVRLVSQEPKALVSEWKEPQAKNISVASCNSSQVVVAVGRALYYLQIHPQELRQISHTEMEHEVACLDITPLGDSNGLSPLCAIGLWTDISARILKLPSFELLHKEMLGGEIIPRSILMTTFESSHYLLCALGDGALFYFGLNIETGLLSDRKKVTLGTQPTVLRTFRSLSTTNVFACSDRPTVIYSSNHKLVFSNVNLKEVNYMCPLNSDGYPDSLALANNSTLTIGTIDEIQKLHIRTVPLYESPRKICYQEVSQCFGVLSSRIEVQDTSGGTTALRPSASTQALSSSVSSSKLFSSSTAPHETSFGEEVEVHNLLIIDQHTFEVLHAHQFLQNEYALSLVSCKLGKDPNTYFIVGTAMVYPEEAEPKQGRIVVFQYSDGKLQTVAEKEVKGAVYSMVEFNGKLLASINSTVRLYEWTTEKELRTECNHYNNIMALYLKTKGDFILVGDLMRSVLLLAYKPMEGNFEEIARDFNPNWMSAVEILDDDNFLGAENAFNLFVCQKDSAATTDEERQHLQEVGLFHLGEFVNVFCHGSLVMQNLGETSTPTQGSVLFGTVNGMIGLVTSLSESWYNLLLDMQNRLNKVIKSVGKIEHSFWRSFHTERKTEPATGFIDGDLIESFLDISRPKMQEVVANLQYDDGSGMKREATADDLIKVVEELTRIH
Protocol Description: HiBit-IKZF2 assay (HiBiT-Helios degradation in MOLT4 cells)
Assay type: cell-based
Study Conditions: concentration at which 50% of HiBiT-Helios degradation was achieved
Overview of recorded DC50 for various compounds
Quantity Name: DC50

> print(dat)
                                    compound    test.value
 1  O=C1CCC(N2Cc3cc(C4CCN(Cc5ccccc5C(=O)N5CC6C(C5)C6(F)F)CC4)ccc3C2=O)C(=O)N1 (stereo not shown) [Compound 111]  30 to 150 nM
 2  O=C1CCC(N2Cc3cc(C4CCN(Cc5ccc6c(c5)C(=O)N(c5ccccc5)CC6)CC4)ccc3C2=O)C(=O)N1 (stereo not shown) [Compound 105]       < 10 nM
 3  O=C1CCC(N2Cc3cc(C4CCN(Cc5cccc(N6CCCCC6=O)c5)CC4)ccc3C2=O)C(=O)N1 (stereo not shown) [Compound 161]   10 to 30 nM
 4  O=C1CCC(N2Cc3cc(C4CCN(Cc5cccc6c5CN(c5ccccn5)C6=O)CC4)ccc3C2=O)C(=O)N1 (stereo not shown) [Compound 124]   10 to 30 nM
 5  Cc1cnc(Nc2cccc(CN3CCC(c4ccc5c(c4)CN(C4CCC(=O)NC4=O)C5=O)CC3)c2)nc1 (stereo not shown) [Compound 228]   10 to 30 nM
 6  O=C1CCC(N2Cc3cc(C4CCN(Cc5ccc(S(=O)(=O)N(c6ccccc6)C6COC6)cc5)CC4)ccc3C2=O)C(=O)N1 (stereo not shown) [Compound 165]       < 10 nM
 7  O=C1CCC(N2Cc3cc(C4CCN(Cc5cnc(Nc6ccccc6)o5)CC4)ccc3C2=O)C(=O)N1 (stereo not shown) [Compound 191]   10 to 30 nM
 8  O=C1CCC(N2Cc3cc(C4(O)CCN(Cc5cccc(F)c5Cl)CC4)ccc3C2=O)C(=O)N1 (stereo not shown) [Compound 254]       < 10 nM
 9  O=C1CCC(N2Cc3cc(C4CCN(Cc5cccc(N6Cc7ncccc7C6=O)c5)CC4)ccc3C2=O)C(=O)N1 (stereo not shown) [Compound 125]       < 10 nM
10  O=C1CCC(N2Cc3cc(C4(O)CCN(Cc5cccc6c5CCN(c5ccccn5)C6=O)CC4)ccc3C2=O)C(=O)N1 (stereo not shown) [Compound 202]       < 10 nM
11  O=C1CCC(N2Cc3cc(C4(O)CCN(Cc5cnc(-c6ccccc6)s5)CC4)ccc3C2=O)C(=O)N1 (stereo not shown) [Compound 240]       < 10 nM
12  CP(C)(=O)c1ccccc1Nc1cccc(CN2CCC(c3ccc4c(c3)CN(C3CCC(=O)NC3=O)C4=O)CC2)c1 (stereo not shown) [Compound 134]       < 10 nM
13  O=C1CCC(N2Cc3cc(C4CCN(Cc5cccc(Nc6ncccc6F)c5)CC4)ccc3C2=O)C(=O)N1 (stereo not shown) [Compound 133]       < 10 nM
14  Cc1ccc(CN2CCC(O)(c3ccc4c(c3)CN(C3CCC(=O)NC3=O)C4=O)CC2)cc1 (stereo not shown) [Compound 266]       < 10 nM
15  N#Cc1ccc(CN2CCC(O)(c3ccc4c(c3)CN(C3CCC(=O)NC3=O)C4=O)CC2)cc1 (stereo not shown) [Compound 239]       < 10 nM
16  O=C1CCC(N2Cc3cc(C4CCN(Cc5ccnc(Oc6ccccc6)c5)CC4)ccc3C2=O)C(=O)N1 (stereo not shown) [Compound 43]  30 to 150 nM
17  N#Cc1ccc(N2Cc3ccc(CN4CCC(c5ccc6c(c5)CN(C5CCC(=O)NC5=O)C6=O)CC4)cc3C2=O)c(F)c1 (stereo not shown) [Compound 177]       < 10 nM
18  O=C1CCC(N2Cc3cc(C4(O)CCN(Cc5c(F)cccc5F)CC4)ccc3C2=O)C(=O)N1 (stereo not shown) [Compound 245]       < 10 nM
19  O=C1CCC(N2Cc3cc(C4CCN(Cc5ccc6c(c5)CN(c5ccccc5)C6=O)CC4)ccc3C2=O)C(=O)N1 (stereo not shown) [Compound 123]   10 to 30 nM
20  O=C1CCC(N2Cc3cc(C4CCN(Cc5ccc6c(c5)C(=O)N(c5ccccc5F)C6)CC4)ccc3C2=O)C(=O)N1 (stereo not shown) [Compound 174]       < 10 nM
21  O=C1CCC(N2Cc3cc(C4CCN(Cc5cccc(N6C(=O)Cc7ccccc76)c5)CC4)ccc3C2=O)C(=O)N1 (stereo not shown) [Compound 95]       < 10 nM
22  O=C1CCC(N2Cc3cc(C4CCN(Cc5cccc(C(=O)Nc6ccccc6)c5)CC4)ccc3C2=O)C(=O)N1 (stereo not shown) [Compound 86]       < 10 nM
23  N#CC1(COc2ccccc2CN2CCC(O)(c3ccc4c(c3)CN(C3CCC(=O)NC3=O)C4=O)CC2)CC1 (stereo not shown) [Compound 209]   10 to 30 nM
24  O=C1CCC(N2Cc3cc(C4(O)CCN(Cc5cc(F)cc(F)c5)CC4)ccc3C2=O)C(=O)N1 (stereo not shown) [Compound 205]       < 10 nM
25  O=C1CCC(N2Cc3cc(C4CCN(Cc5cccc(Nc6ncc(F)cn6)c5)CC4)ccc3C2=O)C(=O)N1 (stereo not shown) [Compound 226]   10 to 30 nM
26  O=C1CCC(N2Cc3cc(C4CCN(Cc5ccc6c(c5)C(=O)N(c5ccccc5)CCC6)CC4)ccc3C2=O)C(=O)N1 (stereo not shown) [Compound 183]       < 10 nM
27  Cc1ccccc1CN1CCC(O)(c2ccc3c(c2)CN(C2CCC(=O)NC2=O)C3=O)CC1 (stereo not shown) [Compound 265]       < 10 nM
28  Cc1ccc(C)n1-c1ccc(CN2CCC(O)(c3ccc4c(c3)CN(C3CCC(=O)NC3=O)C4=O)CC2)cc1 (stereo not shown) [Compound 278]   10 to 30 nM

----------
Recorded DC50 by entry
Target Under Test: IKZF2 (Homo sapiens, UniProt Q96SW2+Q9UKS7)
Construct: CRISPR/Cas9—mediated insertion of the HiBiT peptide tag (Promega™) to the N-terminus of the IKZF2 gene locus; endogenous in cells; host or cells: MOLT4 cells, with CRISPR/Cas9 knock-in of HiBiT at the endogenous IKZF2 locus
Protocol Description: HiBit-IKZF2 assay (HiBiT-Helios degradation in MOLT4 cells)
Type: cell-based
Study Conditions: concentration at which 50% of HiBiT-Helios degradation was achieved
Quantity Name: DC50

> print(dat)
                                   compound  quantity.name       test.value
1  O=C1CCC(N2Cc3cc(C4CCN(Cc5ccc6c(c5)C(=O)N(c5ccc(F)cc5)C6)CC4)ccc3C2=O)C(=O)N1 (stereo not shown)           DC50  0.01 to 0.03 µM
2  O=C1CCC(N2Cc3cc(C4CCN(Cc5cccc(N6Cc7cccnc7C6=O)c5)CC4)ccc3C2=O)C(=O)N1 (stereo not shown)           DC50  0.01 to 0.03 µM
3  O=C1CCC(N2Cc3cc(C4(O)CCN(Cc5ccccc5Oc5ccccc5)CC4)ccc3C2=O)C(=O)N1 (stereo not shown)           DC50        < 0.01 µM
4  O=C1CCC(N2Cc3cc(C4(O)CCN(Cc5cccc(C(F)(F)F)c5)CC4)ccc3C2=O)C(=O)N1 (stereo not shown)           DC50        < 0.01 µM
5  CN(c1ccccn1)S(=O)(=O)c1ccc(CN2CCC(c3ccc4c(c3)CN(C3CCC(=O)NC3=O)C4=O)CC2)cc1 (stereo not shown)           DC50  0.03 to 0.15 µM
6  O=C1CCC(N2Cc3cc(C4CCN(Cc5ccc6c(c5)C(=O)N(c5ccccc5)C6)CC4)ccc3C2=O)C(=O)N1 (stereo not shown)           DC50  0.01 to 0.03 µM
7  Cc1cccc(N2Cc3ccc(CN4CCC(c5ccc6c(c5)CN(C5CCC(=O)NC5=O)C6=O)CC4)cc3C2=O)c1 (stereo not shown)           DC50  0.01 to 0.03 µM

----------
Recorded DC50 by entry
Target Under Test: IKZF2 (Homo sapiens, UniProt Q96SW2+Q9UKS7)
Construct: CRISPR/Cas9—mediated insertion of the HiBiT peptide tag (Promega™) to the N-terminus of the IKZF2 gene locus; endogenous in cells; host or cells: MOLT4 cells, with CRISPR/Cas9 knock-in of HiBiT at the endogenous IKZF2 locus
Protocol Description: HiBit-IKZF2 assay (HiBiT-Helios degradation in MOLT4 cells)
Assay type: cell-based
Study Conditions: concentration at which 50% of HiBiT-Helios degradation was achieved
Quantity Name: DC50

> print(dat)
                                   compound    test.value
1  O=C1CCC(N2Cc3cc(C4CCN(Cc5ccccc5)C(CO)C4)ccc3C2=O)C(=O)N1 (stereo not shown)  30 to 150 nM
2  O=C1CCC(N2Cc3cc(C4CCN(Cc5ccc(S(=O)(=O)N6CC7C(C6)C7(F)F)cc5)CC4)ccc3C2=O)C(=O)N1 (stereo not shown)   10 to 30 nM
3  O=C1CCC(N2Cc3cc(C4(O)CCN(Cc5cccc6cccnc56)CC4)ccc3C2=O)C(=O)N1 (stereo not shown)   10 to 30 nM
4  Cc1ccc(N2Cc3ccc(CN4CCC(c5ccc6c(c5)CN(C5CCC(=O)NC5=O)C6=O)CC4)cc3C2=O)cc1 (stereo not shown)       < 10 nM
5  O=C1CCC(N2Cc3cc(C4(O)CCN(Cc5csc(-c6ccccc6)n5)CC4)ccc3C2=O)C(=O)N1 (stereo not shown)       < 10 nM
6  O=C1CCC(N2Cc3cc(C4(O)CCN(Cc5cccc(Cl)c5)CC4)ccc3C2=O)C(=O)N1 (stereo not shown)       < 10 nM
7  N#CC1(COc2ccc(CN3CCC(c4ccc5c(c4)CN(C4CCC(=O)NC4=O)C5=O)CC3)cc2)CC1 (stereo not shown)   10 to 30 nM
